test system: U251 CNS; assay: NCI-60 one-dose screen, 48 h (100 = growth as untreated, 0 = no growth, -100 = all killed); settings: 10 µM unless noted
The panel holds about 83,000 compounds, 20% with a hit somewhere; the sample as a whole holds those more often.
Label class 1 when growth is strictly below 90%; otherwise label class 0.

A selection of reference data follows.
COc1ccc(N=C2NN=C(c3c[nH]c4ccccc34)CS2)cc1OC	class 1
c1ccc2cc(Cn3cc(CSc4nc5ccccc5s4)nn3)ccc2c1	class 0
CC1(C)CC[C@]23CC[C@]4(C)[C@H](CC[C@@H]5[C@@]6(C)C/C(=C/O)C(=O)C(C)(C)[C@@H]6CC[C@]54C)[C@H]2[C@H]1OC3	class 0

# evaluate next
Would you kindly verify if growth of CN1CCN(c2ccc(NC3=CC(=O)c4ncncc4C3=O)cc2)CC1 is strictly less than 90%?
class 1

----------
Test system: SN12C renal
Assay: NCI-60 one-dose screen, 48 h (100 = growth as untreated, 0 = no growth, -100 = all killed)
Conditions: 10 µM unless noted
Protocol: Growth inhibition of the SN12C human tumor cell line is measured as a screen for anti-cancer activity. Cells are grown in 96 well plates and exposed to the test compound for 48 hours. Compounds are tested at a single concentration, which is 10^-5 M for most compounds. The reported endpoint is percent growth (GI% or GIPRCNT), where numbers from 0 - 100% represent growth inhibition, and numbers from -100% - 0 represent cell death. For example, a value of 40 represents 60% growth inhibition. […]
The panel holds about 83,000 compounds, 20% with a hit somewhere; the sample as a whole holds those more often. Active and inactive are the calls of the source. How the source made its calls: active means growth percent below 10; inactive means the rest.
Exercise: for every item that follows, state its recorded growth.

Sample answers from the record:
N#Cc1ccc(/C=C/c2cn(-c3ccccc3)nc2-c2cccc([N+](=O)[O-])c2)cc1	48.1% (inactive)
Cc1cccc(N2C(=O)/C(=C/C(Cl)=C/c3ccc([N+](=O)[O-])cc3)SC2=S)c1C	-13.4% (active)

I'm hoping you can list growth for every compound here, please.
1. CC(=O)c1ccc(-n2cc(CN3CCN(c4cc5c(cc4F)c(=O)c(C(=O)O)cn5C4CC4)CC3)nn2)cc1
2. Cc1nn(C)c2ncnc(N/N=C/c3cccc(O)c3O)c12
3. Cc1ccc(OCCOCCOCCOc2ccc(C)n(O)c2=S)c(=S)n1O
4. CCCCn1c(NC(C)=O)c(S(=O)(=O)c2ccccc2)c2nc3ccccc3nc21
5. COC12C=C/C(=C(/C(=O)OCc3cncnc3)C(=O)CCCCCCCCC3(OC)C=C/C(=C(/C(=O)OCc4cncnc4)C(=O)CCCCCCCC1)O3)O2
6. Nc1nc(N)c2c(n1)NC(c1cccc(Nc3ccnc4cc(C(F)(F)F)ccc34)c1)CC(c1ccc3c(c1)OCO3)=N2 (stereo not drawn)

103% (inactive)
7.54% (active)
28.7% (inactive)
103% (inactive)
-34.7% (active)
81.6% (inactive)

Provide each entry's growth from the list below.
1. CCN(CC)CCn1c2ccc(OC)cc2c2sc3cc(O)ccc3c(=O)c21
2. CCOC(=O)C/C(=N\Nc1cc(=O)[nH]c2ccc(OC)cc12)C(=O)OCC
3. COc1cc2c(cc1OCCCN1CCN(C(=S)SCCC(C#N)(c3ccccc3)c3ccccc3)CC1)N=C[C@@H]1CCCN1C2=O

1. 23.6% (inactive)
2. 99.5% (inactive)
3. -43.9% (active)

# batch size: 7; output growth per entry
1. Cn1c2ccccc2c2c3c(c4c5cc(Br)ccc5n(C)c4c21)C(=O)N(O)C3=O
2. CC(=O)O[C@H]1CC[C@]2(C)[C@H]3CC=C4[C@@H]5CC(C)(C)CC[C@]5(C(=O)N5CCN(CCC#N)CC5)CC[C@@]4(C)[C@]3(C)CC[C@H]2C1(C)C
3. O=C1/C(=C/c2c[nH]c(=O)[nH]c2=O)SC(=S)N1Cc1ccccc1
4. C#Cc1cccc(NC(=O)C2CCCCN2C(=O)CCl)c1 (stereo not drawn)
5. CCOC(=O)NCCCC(=O)NCCc1ccccc1
6. Cc1oc(-c2ccc(Cl)cc2)nc1C1=NN(C(=O)c2ccncc2)C(c2ccccc2)C1 (stereo not drawn)
7. CC(C)(C)OC(=O)CN1CCc2c(sc3ncnc(N4CCN(c5ccc(F)cc5)CC4)c23)C1

-53.2% (active)
53.4% (inactive)
95.5% (inactive)
-92.3% [8.25 µM] (active)
106% (inactive)
88.7% (inactive)
91.6% (inactive)

----------
system: MALME-3M melanoma; assay: NCI-60 one-dose screen, 48 h; conditions: 10 µM unless noted
This is part of a sample that, as a whole, favours compounds with a hit. Of some 83,000 tested, about 20% had one in any assay. Activity calls are given as the source filed them. How the source made its calls: active means growth percent below 10; inactive means the rest.
// classify into active, inactive

CSc1ccc(N2C(=N)C(=S)N(c3ccc(C)cc3)C2=O)cc1	inactive
CCOc1ncc([N+](=O)[O-])c(OCC)n1	inactive
CSc1ccc2c3c(n(CCCn4ccnc4)c(=O)c2c1)-c1ccccc1C3=O	inactive
Cc1oc(-c2ccc(Cl)cc2)nc1C1=NN(C(=O)c2ccncc2)C(c2ccccc2)C1 (centres undefined)	inactive
CCN(CC)CCOc1ccc(Nc2ncc3cc(-c4c(Cl)cccc4Cl)c(=O)n(CCOC)c3n2)cc1	inactive

Kindly provide the recorded test outcome for the following compound: COc1cc(/C=C/c2cn[nH]c2-c2ccc(C)cc2)cc(OC)c1OC
inactive

Any idea what this test logged for Cc1cc(C(=O)CCCC(=O)c2cc(C)c(O)c(C)c2)cc(C)c1O ?
inactive

----------
system: UACC-257 melanoma; test: NCI-60 one-dose screen, 48 h; conditions: 10 µM unless noted
Compounds without any hit were thinned out: in the full panel of roughly 83,000, 20% have a hit. Activity calls are given as the source filed them. The calls were made as follows: active = growth percent below 10; inactive = the rest.
Log the outcome using a class from y (active), n (inactive)

Recorded results for 3 compounds are shown here.
O=C(OCc1ccc2c(Cl)cc(Cl)c(O)c2n1)N1CCN(C(=O)c2cc3ccccc3[nH]2)CC1	n
COc1ccc2cc(-c3nc4ccc(C)cn4c3NCc3ccco3)c(=O)[nH]c2c1	n
C=C(C)[C@@H]1CC[C@]2(C(=O)Nc3ccccn3)CC[C@]3(C)[C@H](CC[C@@H]4[C@@]5(C)CCCNC(C)(C)[C@@H]5CC[C@]43C)[C@@H]12	y

Look up the recorded call for C#Cc1cccc(NC(=O)C2CCCCN2C(=O)CCl)c1 (centres undefined) in this test.
y

----------
tested on: NCI-H322M lung; assay: NCI-60 one-dose screen, 48 h (100 = growth as untreated, 0 = no growth, -100 = all killed); details: 10 µM unless noted
The panel holds about 83,000 compounds, 20% with a hit somewhere; the sample as a whole holds those more often. Activity calls are given as the source filed them. Rule for the calls: active = growth percent below 10; inactive = the rest.
Readout Label: growth

Solved entries (count: 5):
Cc1nc([P+](c2ccccc2)(c2ccccc2)c2ccccc2)c(N2CCCCC2)o1	78.4% (inactive)
CCN(CC)C(=O)CC1=C(C)/C(=C/c2[nH]c(-c3ccc[nH]3)cc2OC)N=C1C	37.1% (inactive)
CCOC(=O)CC[C@H](NC(=O)c1ccc(N(C)Cc2cnc3nc(N)nc(N)c3n2)c2ccccc12)C(=O)OCC	46.3% (inactive)
O=C(Cn1nc(-c2cccc3ccccc23)ccc1=O)NCc1cccc(Cl)c1	70.4% [50 µM] (inactive)
O=C(/C=C/c1cccc(Oc2ccccc2)c1)c1ccc(Nc2nc(Nc3ccc(F)cc3)nc(Nc3ccc(Cl)cc3)n2)cc1	93.8% (inactive)

Take each entry in turn and give its growth.
1. CC12OC(CC(O)C1O)n1c3ccccc3c3c4c(c5c6ccccc6n2c5c31)C(=O)N(CCN1CCCC1)C4=O (stereo not drawn)
2. COC(=O)[C@]1(C)CCC[C@]2(C)[C@H]3C[C@@H]4[C@H]5[C@@H]6CC/C(=N\OCC/C(N)=N/O)[C@H]5[C@@]3(CC[C@H]21)CC4(C(C)C)O6

1. 28.5% (inactive)
2. 82.2% (inactive)

Note down growth recorded for CN(C)c1ccc(C(=S)c2ccc(N(C)C)cc2)cc1
103% (inactive)

----------
system: HCC-2998 colon; assay: NCI-60 one-dose screen, 48 h (100 = growth as untreated, 0 = no growth, -100 = all killed); details: 10 µM unless noted
The panel holds about 83,000 compounds, 20% with a hit somewhere; the sample as a whole holds those more often.
Readout Label: growth (%)
Give bare numbers, in %.

COC(=O)c1nc(-c2ccccc2)oc1S(=O)(=O)N1CCCC(C)C1 (stereo not given)	104

I would be grateful if you could provide growth for each of the following entries.
1. c1ccc(Cn2cc3c(c2-c2ccccc2)CCc2cnoc2-3)cc1
2. O=S(=O)(Nc1cc(F)cc(F)c1)c1ccc(-c2cnc(C3CC3)o2)cc1

[58.5, 67.3]

Return reported growth values for all items listed beneath this line.
1. COc1ccc(-c2cc(C(=O)N3N=C(c4ccc(N)cc4)CC3c3ccc(Cl)cc3)c3cc(OC)ccc3n2)cc1 (stereo not given)
2. CC(C)(Sc1cc(C(C)(C)C)c(O)c(C(C)(C)C)c1)Sc1cc(C(C)(C)C)c(OC(=O)CCC(=O)O)c(C(C)(C)C)c1

1: 83.3; 2: 42.9
